# System: Gram-negative bacteria (E. coli, P. aeruginosa, K. pneumoniae)
# Method Notes: Geometric mean of MICs against Gram-negative bacteria
# Assay type: cell-based
# Parameters: unit not given here
Ends that are not written are not given here.
Quantity Name: GM to G−
# respond with the number and nothing more

Some substances with known GM to G− results, for comparison:
1. LKRVWKRVFKLLKRYWRQLKKPVR-NH2 [SAAP-148]	4.96
2. LKRVWKRVFKKLKRYWRQLKKPVR-NH2 [SAAP-6]	2.48
3. LKRVWKRVFKLKKRYWRQLKKPVR-NH2 [SAAP-7]	9.93
4. LKRVWKRVFKLLKRYKRQLKKPVR-NH2 [SAAP-9]	3.94
5. KKRVWKRVFKLLKRYWRQLKKPVR-NH2 [SAAP-1]	3.94
6. LKRVWKRVFKLLKRYWRQLKKKVR-NH2 [SAAP-12]	25

Lab note: measured GM to G− of LKRVWKRVFKLLKRYWRKLKKPVR-NH2 [SAAP-10] was 9.92

Kindly note the recorded GM to G− for LKRKWKRVFKLLKRYWRQLKKPVR-NH2 [SAAP-2] , which is 4.97

Input LKRVWKRVFKLLKRKWRQLKKPVR-NH2 [SAAP-8] . Output GM to G−: 3.93

Looking up LKRVWKRVFKLLKRYWRQKKKPVR-NH2 [SAAP-11] , I found its GM to G− recorded as 15.75

Recorded GM to G− (substance LKRVWKRVFKLLKRYWRQLKKPKR-NH2 [SAAP-13] ): 12.5

What the record says about LKRVWKRVKKLLKRYWRQLKKPVR-NH2 [SAAP-5] : GM to G− is 3.94

The substance LKRVKKRVFKLLKRYWRQLKKPVR-NH2 [SAAP-3] showed GM to G− equal to 3.12

Per the record, LKRVWKRKFKLLKRYWRQLKKPVR-NH2 [SAAP-4] has GM to G− of 7.87

Provenance of the data: paper PMC11546786
